Hello, the source for this data is patent US20240173440A1, in case you need it.

Tested on: HT-1080.hFAP and HT-1080.wt xenografts
PROTOCOL_SUMMARY: Quantitative biodistribution in HT-1080.hFAP and HT-1080.wt xenografted mice
Format: in vivo
EXPERIMENTAL_CONDITIONS: 4 h p.i., HT-1080.hFAP and HT-1080.wt xenografts
ENDPOINT_NAME: Biodistribution Femur (% IA/g)
Answers are plain numbers, in % IA/g.

Before answering, review these 2 worked examples.
COMPOUND: N#C[C@@H]1CC(F)(F)CN1C(=O)CNC(=O)c1ccnc2ccc(NC(=O)CCC(=O)NCCNC(=O)CC[C@H](C(=O)O)N3CCN4CCN(CC3)CC(=O)[O][61Cu][O]C(=O)C4)cc12 [[^61Cu]Cu-NODAGA-F1]
ENDPOINT_NAME: Biodistribution Femur
READOUT_UNITS: % IA/g
NUMERIC_READOUT: 4.2

COMPOUND: N#C[C@@H]1CC(F)(F)CN1C(=O)CNC(=O)c1ccnc2ccc(NC(=O)CCC(=O)N3CCN(C(=O)CC[C@H](C(=O)O)N4CCN5CCN(CC4)CC(=O)[O][61Cu][O]C(=O)C5)CC3)cc12 [[^61Cu]Cu-NODAGA-F3]
ENDPOINT_NAME: Biodistribution Femur
READOUT_UNITS: % IA/g
NUMERIC_READOUT: 3.7

Q. Tell me measured Biodistribution Femur for CN(C(=O)CCC(=O)NCCNC(=O)CC[C@H](C(=O)O)N1CCN2CCN(CC1)CC(=O)[O][61Cu][O]C(=O)C2)c1ccc2nccc(C(=O)NCC(=O)N3CC(F)(F)C[C@H]3C#N)c2c1 [[^61Cu]Cu-NODAGA-F2] please.
A. 1.6
